- Tested on: ATP;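 also: ATP exposure 15 min at 22 °C before imaging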
- procedure.summary: switch fluorescence ratio, 500 uM ATP over buffer (Cy3 cluster intensity, sum of 5 cycles each) (fold (ratio)); higher = stronger signal-on switching upon ATP binding; sequences stand for … in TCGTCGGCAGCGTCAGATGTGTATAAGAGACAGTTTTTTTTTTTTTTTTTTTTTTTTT…TC
- study.conditions: aptamer strand: ATP DNA aptamer (quencher-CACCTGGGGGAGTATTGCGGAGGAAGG + anchor), 100 nM annealed; ATP concentration: 500 uM
assay.endpoint: switch fluorescence ratio
No unit in the answer, only the number.

TTAAGAGGTC ... 0.979

Read the next record carefully.
Input line: Could you tell me which switch fluorescence ratio is on file for TTTTAGGATT ?
Output line: 1.02

* * *

Listed here: items and their measured switch fluorescence ratio.
- Tested on: ATP;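 also: ATP exposure 15 min at 22 °C before imaging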
- procedure.summary: switch fluorescence ratio, 500 uM ATP over buffer (Cy3 cluster intensity, sum of 5 cycles each) (fold (ratio)); higher = stronger signal-on switching upon ATP binding; sequences stand for … in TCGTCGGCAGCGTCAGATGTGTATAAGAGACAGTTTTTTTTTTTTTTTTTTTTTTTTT…TC
- study.conditions: aptamer strand: ATP DNA aptamer (quencher-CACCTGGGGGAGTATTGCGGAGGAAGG + anchor), 100 nM annealed; ATP concentration: 500 uM
No unit in the answer, only the number.

CCTAACTAAA ... 0.995

Input line: Recorded switch fluorescence ratio for ATTGGCGTTT with ATP, please?
Output line: 0.996

Input line: Recorded switch fluorescence ratio for GCTTCGGGCC with ATP, please?
Output line: 0.991

Input line: Recorded switch fluorescence ratio for ACCGGCGAGG with ATP, please?
Output line: 1.01

Input line: Recorded switch fluorescence ratio for TTTGACGG with ATP, please?
Output line: 0.972

Input line: Recorded switch fluorescence ratio for TAACATCTTC with ATP, please?
Output line: 1.01

Input line: Recorded switch fluorescence ratio for TATCGAATCC with ATP, please?
Output line: 0.99

Input line: Recorded switch fluorescence ratio for CGGGTTTTGA with ATP, please?
Output line: 1

Input line: Recorded switch fluorescence ratio for CCTGATGCGG with ATP, please?
Output line: 1.02

Input line: Recorded switch fluorescence ratio for TTCAAAGGCC with ATP, please?
Output line: 0.981

Input line: Recorded switch fluorescence ratio for GCTTGAAGGG with ATP, please?
Output line: 1.01

Input line: Recorded switch fluorescence ratio for GAGGGAAACA with ATP, please?
Output line: 1.01

Input line: Recorded switch fluorescence ratio for TTTCAGGTCG with ATP, please?
Output line: 1.02

* * *

- Tested on: ATP;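 also: ATP exposure 15 min at 22 °C before imaging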
- procedure.summary: switch fluorescence ratio, 500 uM ATP over buffer (Cy3 cluster intensity, sum of 5 cycles each) (fold (ratio)); higher = stronger signal-on switching upon ATP binding; sequences stand for … in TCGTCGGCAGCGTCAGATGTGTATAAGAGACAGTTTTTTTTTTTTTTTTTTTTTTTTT…TC
- study.conditions: aptamer strand: ATP DNA aptamer (quencher-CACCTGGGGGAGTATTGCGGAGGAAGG + anchor), 100 nM annealed; ATP concentration: 500 uM
Outcome label depends on switch fluorescence ratio relative to 1: at/above gives met, below gives not met.

AAGGAAAACG ... not met
TTTGTGGATT ... met
ACAACCGGGG ... met
ACTTAGGTTG ... met
AAAGAGGGTG ... met
TATGTCTCCG ... met
ATTTTTTCAG ... met
TCGAAGTGAA ... met
ATTGTTTTTC ... met
CGAATCGGTA ... not met

Below: the item to evaluate.
Input line: Given TATAGCATTA , state whether its switch fluorescence ratio is at least 1.
Output line: met
